Kindly supply the reported Fold change to WT CD80 values for the records listed here.
target: T1, human CD28 (human, UniProt P10747 19-220); experiment: flow cytometry MFI relative to WT CD80 IgV-Fc, Jurkat cells (CD28), 33.3 nM
T1 construct: whole, on cells; Jurkat/IL2 reporter cells, which endogenously express CD28
Response body: numeric value in fold, unit text excluded.

INPUT: Answer with reported Fold change to WT CD80 of variant CD80 IgV-Fc (inert) H18F/A26D/E35D/D46E/M47T/V68M/A71G/D90G (Fc fusion, not shown: inert human IgG1 Fc) VIHVTKEVKEVATLSCGFNVSVEELDQTRIYWQKDKKMVLTMMSGETNIWPEYKNRTIFDITNNLSIMILGLRPSDEGTYECVVLKYEKGAFKREHLAEVTLSVKAD
OUTPUT: 59.1

INPUT: Fill in Fold change to WT CD80 for record variant CD80 IgV-Fc (inert) H18V/A26D/E35D/M47V/V68M/A71G/D90G (Fc fusion, not shown: inert human IgG1 Fc) VIHVTKEVKEVATLSCGVNVSVEELDQTRIYWQKDKKMVLTMMSGDVNIWPEYKNRTIFDITNNLSIMILGLRPSDEGTYECVVLKYEKGAFKREHLAEVTLSVKAD
OUTPUT: 61.3
